From: paper PMC6100075

Experiment: Cell viability assay (PrestoBlue resazurin)
Type: cell-based, Mus musculus (mouse)
Conditions: mouse, B16-F10 melanoma cells, 30 μM; 72 h; relative to control; read-out: % Cell Viability
Quantity: viability at 72 h, 30 µM (%)
Expressed in %, but write only the number.

- COc1ccc(C2COc3cc(O)ccc3C2=O)c(O)c1OC (centres unmarked): 74.1

# input Answer with the recorded viability at 72 h, 30 µM of COc1ccc([C@H]2COc3cc(O)ccc3C2=O)c(OC)c1 only.
# output 60

# input Answer with the recorded viability at 72 h, 30 µM of COc1ccc(C2COc3cc(O)cc(O)c3C2=O)cc1O (centres unmarked) only.
# output 102

# input Answer with the recorded viability at 72 h, 30 µM of COc1ccc(-c2coc3cc(O)ccc3c2=O)cc1O only.
# output 101

# input Answer with the recorded viability at 72 h, 30 µM of COc1cc(O)c(-c2coc3cc(O)cc(O)c3c2=O)cc1O only.
# output 60

# input Answer with the recorded viability at 72 h, 30 µM of COc1ccc([C@H]2COc3cc(O)cc(O)c3C2=O)c(OC)c1O only.
# output 103

# input Answer with the recorded viability at 72 h, 30 µM of COc1cc(OC)c(C2COc3cc(O)cc(O)c3C2=O)cc1O (centres unmarked) only.
# output 100

# input Answer with the recorded viability at 72 h, 30 µM of COc1ccc(-c2coc3cc(O)cc(O)c3c2=O)cc1 only.
# output 102

* * *

System: B16-F10 melanoma cells
Assay: Total melanin content assay
Type: cell-based, Mus musculus (mouse)
Conditions: Mus musculus, B16-F10; 15 μM; 72 h; relative to control; read-out: % Melanin Content
Quantity: activity at 15 µM (%)
Expressed in %, but write only the number.

- COc1cc(-c2coc3cc(O)cc(O)c3c2=O)ccc1O [Compound 6, 3′-O-Methylorobol]: 170
- COc1cc(O)c(-c2coc3cc(O)cc(O)c3c2=O)cc1O [Compound 5, Khrinone B]: 84.1
- COc1ccc([C@@H]2COc3cc(O)ccc3C2)c(O)c1 [Compound 19, (3R)-Vestitol]: 186
- COc1ccc([C@@H]2COc3cc(O)ccc3C2=O)cc1O [Compound 10]: 95.1
- COc1cc(OC)c(C2COc3cc(O)cc(O)c3C2=O)cc1O (centres unmarked) [Compound 18, Dalparvin A]: 132

# input Answer with the recorded activity at 15 µM of COc1ccc(-c2coc3cc(O)cc(O)c3c2=O)cc1 [Compound 3, Biochanin A] only.
# output 165

# input Answer with the recorded activity at 15 µM of COc1ccc(C2COc3cc(O)cc(O)c3C2=O)cc1O [Compound 16, (3R,S)-Kenusanone G] only.
# output 133

# input Answer with the recorded activity at 15 µM of COc1c(O)cc2occ(-c3ccc(O)cc3)c(=O)c2c1O [Compound 8, Tectorigenin] only.
# output 128

* * *

# key: entry, value: inhibition at 200 µM
Target: mushroom tyrosinase (Agaricus bisporus, UniProt C7FF04)
Sequence (G1K3P4 entry or part of it): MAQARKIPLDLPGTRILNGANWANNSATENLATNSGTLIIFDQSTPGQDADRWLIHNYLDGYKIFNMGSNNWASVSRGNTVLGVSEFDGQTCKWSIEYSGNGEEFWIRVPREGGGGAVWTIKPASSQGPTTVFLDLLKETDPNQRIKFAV
Sequence (C7FF04 2-392): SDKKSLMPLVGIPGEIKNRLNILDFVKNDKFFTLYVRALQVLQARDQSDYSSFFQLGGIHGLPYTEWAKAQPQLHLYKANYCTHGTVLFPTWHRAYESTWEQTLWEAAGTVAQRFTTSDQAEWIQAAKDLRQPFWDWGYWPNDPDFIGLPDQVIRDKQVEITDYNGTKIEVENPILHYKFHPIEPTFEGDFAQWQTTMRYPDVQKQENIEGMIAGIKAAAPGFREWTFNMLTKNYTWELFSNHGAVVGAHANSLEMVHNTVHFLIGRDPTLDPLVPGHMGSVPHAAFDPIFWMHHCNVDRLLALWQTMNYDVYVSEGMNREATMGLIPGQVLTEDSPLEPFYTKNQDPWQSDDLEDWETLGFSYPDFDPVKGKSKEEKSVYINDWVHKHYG
Experiment: Mushroom tyrosinase inhibitory assay (o-diphenolase activity, L-DOPA as substrate)
Type: biochemical
Details: 200 μM; L-DOPA substrate; read-out: Mushroom Tyrosinase Inhibition % Inhibition (at 200 μM)
Expressed in %, but write only the number.

• COc1cc(-c2coc3cc(O)cc(O)c3c2=O)ccc1O = 14.3

# input Answer with the recorded inhibition at 200 µM of COc1ccc(C2COc3c(ccc(O)c3OC)C2)c(O)c1O [Compound 21, (3R,S)-3′-Hydroxy-8-methoxy vestitol] only.
# output 64.1

# input Answer with the recorded inhibition at 200 µM of COc1ccc(-c2coc3cc(O)cc(O)c3c2=O)cc1 only.
# output 9.2

# input Answer with the recorded inhibition at 200 µM of COc1cc2c(cc1O)[C@@H]1COc3cc(O)ccc3[C@@H]1O2 only.
# output 84.6

* * *

Tested on: B16-F10 melanoma cells
Assay: Total melanin content assay
Assay type: cell-based, Mus musculus (mouse)
Conditions: Mus musculus, B16-F10; 15 μM; 72 h; relative to control; read-out: % Melanin Content
# key: entry, value: activity at 15 µM
Please give the number followed by its unit.

Previously resolved entries follow.
• O=C1C[C@@H](c2ccc(O)cc2)Oc2cc(O)ccc21 = 103%
• COc1ccc([C@H]2COc3c(ccc(O)c3O)C2)c(OC)c1O = 87.8%
• O=c1c(-c2ccc(O)cc2)coc2cc(O)cc(O)c12 = 165%

Attention now shifts to the item below.
# input Answer with the recorded activity at 15 µM of O=c1cc(CO)occ1O [Kojic acid, reference compound] only.
# output 68.9%

* * *

Tested on: B16-F10 melanoma cells
Experiment: Total melanin content assay
Assay type: cell-based, Mus musculus (mouse)
Conditions: Mus musculus, B16-F10; 15 μM; 72 h; relative to control; read-out: % Melanin Content
# key: entry, value: activity at 15 µM
Expressed in %, but write only the number.

Previously resolved entries follow.
* Oc1cc(O)cc(/C=C/c2ccc(O)cc2O)c1 [Oxyresveratrol, reference compound] | 24.3
* COc1ccc(C2COc3cc(O)ccc3C2=O)c(OC)c1OC [Compound 15, (3R,S)-3′-O-Methylviolanone] | 143
* COc1ccc(-c2coc3cc(O)cc(O)c3c2=O)c(OC)c1O [Compound 7, Khrinone C] | 108
* COc1ccc(-c2coc3cc(O)ccc3c2=O)cc1O [Compound 2, Calycosin] | 143

Attention now shifts to the item below.
# input Answer with the recorded activity at 15 µM of COc1ccc([C@H]2COc3cc(O)cc(O)c3C2=O)c(OC)c1O [Compound 17, (3S)-Secundiflorol H] only.
# output 118

* * *

# key: entry, value: inhibition at 500 µM
Target: mushroom tyrosinase (Agaricus bisporus, UniProt C7FF04)
Experiment: Mushroom tyrosinase inhibitory assay (o-diphenolase activity, L-DOPA as substrate)
Format: biochemical
Conditions: 500 μM; L-DOPA substrate
Expressed in %, but write only the number.

Previously resolved entries follow.
• COc1ccc(C2COc3cc(O)ccc3C2=O)c(O)c1OC (centres unmarked) [Compound 13, Dalparvin B] = 4
• COc1ccc(C2COc3cc(O)cc(O)c3C2=O)cc1O [Compound 16, (3R,S)-Kenusanone G] = 0
• COc1ccc([C@H]2COc3cc(O)ccc3C2=O)c(OC)c1 [Compound 14, (3S)-Sativanone] = 13

# input Answer with the recorded inhibition at 500 µM of COc1cc(OC)c(C2COc3cc(O)cc(O)c3C2=O)cc1O (centres unmarked) [Compound 18, Dalparvin A] only.
# output 0

# input Answer with the recorded inhibition at 500 µM of COc1ccc(C2COc3c(ccc(O)c3OC)C2)c(OC)c1O (centres unmarked) [Compound 22, Duartin] only.
# output 0

* * *

Test: Cell viability assay (PrestoBlue resazurin)
Assay type: cell-based, Mus musculus (mouse)
Conditions: mouse, % Cell Viability
Quantity: viability at 72 h, 15 µM (%)
Expressed in %, but write only the number.

# input Answer with the recorded viability at 72 h, 15 µM of Oc1cc(O)cc(/C=C/c2ccc(O)cc2O)c1 [Oxyresveratrol, reference compound] only.
# output 117

* * *

# key: entry, value: viability at 72 h, 30 µM
Assay: Cell viability assay (PrestoBlue resazurin);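 further: mouse B16-F10 melanoma cells exposed to test samples for 72 h, with viability read as fluorescence of resorufin formed when living cells reduce PrestoBlue resazurin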
Format: cell-based, Mus musculus (mouse)
Settings: mouse, B16-F10 melanoma cells, 30 μM; 72 h; relative to control; read-out: % Cell Viability
Expressed in %, but write only the number.

Previously resolved entries follow.
- COc1ccc(C2COc3c(ccc(O)c3OC)C2)c(O)c1O [Compound 21, (3R,S)-3′-Hydroxy-8-methoxy vestitol]: 60
- COc1cc(-c2coc3cc(O)cc(O)c3c2=O)ccc1O [Compound 6, 3′-O-Methylorobol]: 102
- O=C1C[C@@H](c2ccc(O)cc2)Oc2cc(O)ccc21 [Compound 24, (2S)-Liquiritigenin]: 100
- COc1cc2c(cc1O)[C@@H]1COc3cc(O)ccc3[C@@H]1O2 [Compound 27]: 14
- COc1ccc([C@H]2COc3c(ccc(O)c3O)C2)c(OC)c1O [Compound 23, (3S)-8-Demethylduartin]: 98.3

# input Answer with the recorded viability at 72 h, 30 µM of COc1ccc(-c2coc3cc(O)ccc3c2=O)cc1 [Compound 1, Formononetin] only.
# output 92.8

# input Answer with the recorded viability at 72 h, 30 µM of COc1cc2c(cc1C1COc3cc(O)ccc3C1=O)OCO2 (centres unmarked) [Compound 11, Onogenin] only.
# output 92

# input Answer with the recorded viability at 72 h, 30 µM of COc1ccc(C2COc3cc(O)ccc3C2=O)c(OC)c1OC [Compound 15, (3R,S)-3′-O-Methylviolanone] only.
# output 72.9

* * *

Target: mushroom tyrosinase (Agaricus bisporus, UniProt C7FF04)
Test: Mushroom tyrosinase inhibitory assay (o-diphenolase activity, L-DOPA as substrate);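 further: enzyme and test sample preincubated 10 min at 25 °C in pH 6.8 phosphate buffer, 50% DMSO vehicle as control, enzyme-free mixture as blank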
Format: biochemical
Conditions: read-out: Mushroom Tyrosinase Inhibition % Inhibition (at 200 μM)
# key: entry, value: inhibition at 200 µM
Expressed in %, but write only the number.

• COc1ccc([C@@H]2COc3cc(O)ccc3C2=O)cc1O [Compound 10] = 52.1

# input Answer with the recorded inhibition at 200 µM of O=C1C[C@@H](c2ccc(O)cc2)Oc2cc(O)ccc21 [Compound 24, (2S)-Liquiritigenin] only.
# output 52.1

# input Answer with the recorded inhibition at 200 µM of Oc1cc(O)cc(/C=C/c2ccc(O)cc2O)c1 [Oxyresveratrol, reference compound] only.
# output 98.4

# input Answer with the recorded inhibition at 200 µM of COc1cc(O)c2c(=O)c(-c3ccc(O)cc3O)coc2c1 [Compound 9, Cajanin] only.
# output 65
